tested on: MS2 coat protein; assay: apparent KD of MS2 coat protein; higher = weaker reporter binding; details: Eterna round: R107; input ligand: none
experimental_readout: apparent KD of MS2 coat protein (nM)
Lab book: enter the figure in nM, no units written.

Answered cases to consult:
{"columns": ["ordered_residues", "result_number"],
 "data": [
  ["UGUAUGGACUGAAGGAGCGCCUCAAAUAACAUGAGGAUCACCCAUGUGGACAAAGUCCUUGGGCAGGUAGGUCGCAGUCCAUACU [ArgBX 5 #StaticStem #MS2Late]", 72.4],
  ["AAACAUGAGGAUCACCCAUGUGCUCCUGUCCGAGGACCGGUACGGCCGCCACUCGGUUCUCGGGAGGAUGGUCAAAGACUAUCCA [Omei Trp A SS B v10]", 50.6],
  ["UUGUGGCGCUCGGCCGCCACUCCGACAUGAGGAUCACCCAUGUUCUACAUGAGGAUCACCCAUGUGAGGACCGGGAGACACAACC [Exclusion Tryptophan B GF12]", 126]
]}

Which apparent KD of MS2 coat protein is reported for this sequence? UCAGUGCAAGGAAGGAGCGGGUACAUGAGGAUCACCCAUGUGCAAGUGGUGAGCGUCCGUGCCCAGGUAGGUCGCCUAGCCUGGU [Quisso]
109

And CUCCCGUGGUCGGCCGCCACUGGAGGCCUUGCGCGACAUGAGGAUCACCCAUGUGUGCCCGGCGUCAGGACCGGGAUCGCGUGAG [#1 Same State - Tryptophan B Attempt #12 (HarryS)] ?
16.1

And AAAAGAGGUGGAAGGAGCGGGAGACAUGAGGAUCACCCAUGUGAAGUGACGAAAGGAUCAUCCCAGGUAGGUCGCCAUGUCGAAA [csstmullin] ?
147

====

tested on: MS2 coat protein; assay: apparent KD of MS2 coat protein; designed switch direction (-1 OFF switch, 1 ON switch): 1; higher = weaker reporter binding; details: Eterna round: R95; input ligand: microRNA oligo, concentration not stated
Rule: apparent KD of MS2 coat protein of 200 nM or more gives true (1); anything lower gives false (0).

Completed entries (count: 3):
{"columns": ["ordered_residues", "label_class"],
 "data": [
  ["GAGUUACUAUCUCAGGAUAUCAUGUCAAAGACAUGAGGAUCACCCAUGUACCAGGAAACUGGUUAUGAGAAGGGAGAUAGUAACA [Mat - Same State 2 - Mod - D51] (puzzle: Same State 2)", "false (0)"],
  ["GUACUACAUGAGGAUCACCCAUGUACGCCAGUACGAGGAUAUGCAUGGGCGCUAGCUGGUGCAGAAGGCGUAGUGC [Pin2Pin #6] (puzzle: Same State 1)", "false (0)"],
  ["GCUGCACAUGAGGAUCACCCAUGUCUUCGGAGUCGAGGAUAUGGUCACUGUAAACAGUGGCCAGAAGGCGAGUAGC [SS1 - Son of Teenbexe v6] (puzzle: Same State 1)", "false (0)"]
]}

Turning now to a further sequence:
Identify whether the reported apparent KD of MS2 coat protein of the following sequence is 200 nM or greater: GACAAUCUAUCUGAGGAUAUCAUGAGAAUAACAUGAGGAUCACCCAUGUGCAGGAAAACUGCAUAUGAGAAGGCAGAUAGAUUGA [Mat - Same State 2 - Mod - D15] (puzzle: Same State 2)
true (1)

====

tested on: MS2 coat protein; assay: apparent KD of MS2 coat protein; designed switch direction (-1 OFF switch, 1 ON switch): -1; higher = weaker reporter binding; conditions: input ligand: none
Rule: apparent KD of MS2 coat protein of 50 nM or more gives Satisfied; anything lower gives Not satisfied.

{"columns": ["ordered_residues", "label_class"],
 "data": [
  ["UAGGAGAGAGUGAGGAUAUCCGGAAGAGAGGAUCAGGAGAAGGCACAUGAGGAUCACCCAUGUAAAAGAGGGAA [I think I solved risk of not working] (Eterna round: R97, puzzle: Brourd's mod of Exclusion 4)", "Satisfied"],
  ["AAAUUCAGAGGAUAUGCGCAUAGAUAAGACUUUGUUUCUUAACAUGAGGAUCACCCAUGUAGAAGGCUGUACAA [Ex2 #68] (Eterna round: R97, puzzle: Exclusion 2)", "Not satisfied"],
  ["AACCCGAUAGGAUAUACUUGAGGAUCACCCAAGUACGCCUGCAAUGCAAGCGCCUGAAGUAGAAGGAUCAAAAG [Gexetele] (Eterna round: R97, puzzle: Exclusion 3)", "Not satisfied"],
  ["AUAAUUAAUGCAGGAUAUCAGCACGUUUAGUGCUGAGAAGGGCACAUGAGGAUCACCCAUGUGAUCAAUUAAUAUUAAUAUUAU [ENG1/11-D2] (Eterna round: R96, puzzle: Exclusion NG 1)", "Satisfied"]
]}

Turning now to a further sequence:
Identify whether the reported apparent KD of MS2 coat protein of the following sequence is 50 nM or greater: UCACGGGACUGAGGAUAUACAUUUAUUAUUUUAGUAGAAGGCAGAAAGUUAGUUUUUUCACUAUACAUGAGGAUCACCCAUGUU [JR_ExcNG1_Sub085] (Eterna round: R96, puzzle: Exclusion NG 1)
Not satisfied

====

test system: MS2 coat protein; assay: apparent KD of MS2 coat protein; designed switch direction (-1 OFF switch, 1 ON switch): -1; higher = weaker reporter binding; conditions: Eterna round: R95; input ligand: microRNA oligo, concentration not stated
# apparent KD of MS2 coat protein values compiled below
In your response, put the unit directly after the numeric value.

Answered cases to consult:
{"columns": ["ordered_residues", "apparent KD of MS2 coat protein"],
 "data": [
  ["UGUGCGUAUGUGAGGAUAUGCUGGUCCUUGGAUCGGCAGAAGGCACAUGAGGAUCACCCAUGUGGUGUCGUACC [salish99_Bmod_ex4_075] (puzzle: Brourd's mod of Exclusion 4)", "154 nM"],
  ["UAACACCGAGGAUAUACAUUUCUCAUAAGGUGCAAAACCGCACAUGAGGAUCACCCAUGUAGAAGGCGGCAAAU [Enrabeange] (puzzle: Exclusion 2)", "10.5 nM"]
]}

Which apparent KD of MS2 coat protein is reported for this sequence? UUAUAGAGAGGAUAUAUAAUGUGAAACAUGAGGAUCACCCAUGUAAUAUUAUGGAUGUAAAUAGAAGGCUCAAUUU [Mat - Exclusion 5 - JL mod - D14] (puzzle: Exclusion 5)
30.6 nM

And AAAAAGCGAGGAUAUGCAUAAGGACCCGGGAGGGAAAUCAAACAUGAGGAUCACCCAUGUAGAAGGCGCAAAAA [Exclss2-III] (puzzle: Exclusion 2) ?
18.2 nM

And GAUUAUGCGAGCUUUAGGGACAUGAGGAUCACCCAUGUUCGUCUUAUUAGUCUAGGUGCACUAACAUACCUAAAUCU [JMF 35] (puzzle: Sensor v3, turn-off variant 1) ?
36 nM

====

# apparent KD of K4 kissing-loop reporter values compiled below
tested on: K4 kissing-loop RNA reporter; test: apparent KD of K4 kissing-loop reporter; higher = weaker reporter binding; details: Eterna round: R107; input ligand: theophylline 20 uM
In your response, put the unit directly after the numeric value.

Answered cases to consult:
{"columns": ["ordered_residues", "apparent KD of K4 kissing-loop reporter"],
 "data": [
  ["UGAUACCAGACGGCCGCCACUCCUGCAGUCAAAAGACUGCUAAAGGAAAUCGUCCAGUGAUGUUGGAGGACCGGGUCUGGUAUCU [TrypBX 16 #SwitchBubble #Palindromic #StaticStem]", "0.991 µM"],
  ["AUUUAGACGAGUGAUGUUCGUGUUUUUUCAGAGGAUAUGCGUAAUUGCAGAAGGCUGUAUUUAUAUAUGUUUUGUUUUUUUAAAA [JR_ExcFMNA_Sub008]", "0.0936 µM"]
]}

Report apparent KD of K4 kissing-loop reporter for AAGUGAUGUUGUAGUGAUGUUGUGAUGUUGCAGGAUAUAUAGUGAUGUAGAAGGGUAUGUACUUAUUUGUUUUUUGAGUUAUGUU [zzazzrmullin] tested on K4 kissing-loop RNA reporter.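 Note: bound reporter read as fluorescence of individual clusters on recovered sequencing chips by microscopy, with normalized cluster intensities fitted with a binding model.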
0.041 µM

====

system: MS2 coat protein; assay: apparent KD of MS2 coat protein; designed switch direction (-1 OFF switch, 1 ON switch): -1; higher = weaker reporter binding; conditions: input ligand: microRNA oligo, concentration not stated
Rule: apparent KD of MS2 coat protein of 30 nM or more gives class 1; anything lower gives class 0.

{"columns": ["ordered_residues", "label_class"],
 "data": [
  ["UAUAUAUAGUAAGGAUAUGUAAUUACUUUAUAAACAGAAGGUACUGACAUGAGGAUCACCCAUGUUUUAGUGUGGGCAUGUAGA [JMF's solution 37] (Eterna round: R96, puzzle: Exclusion NG 1)", "class 1"],
  ["UCGUUCCGUGUAGGAUAUUGGCCUUCUCUGGGCCGAGAAGGACAUGAGGAUCACCCAUGUAUGUUAUUAUCGCGCGUGGCGCAU [Design 85] (Eterna round: R96, puzzle: Exclusion NG 1)", "class 0"],
  ["AAUGUUUGAUUCCACUUAUACAUGAGGAUCACCCAUGUUAUCGAGGAUAUGCAUUAGAGUGUUUAGCAGAAGGCGAUGUAAUUG [JR_ExcNG3_Sub034] (Eterna round: R96, puzzle: Exclusion NG 3)", "class 0"],
  ["ACAUGAGGAUCACCCAUGUCCGGCUGGUCCGUCUCGGCUGUCGAGGAUAUAGCACGGUAUCCGCGCUAGAAGGCGGGAGCCGGA [Aenatbe mod 85] (Eterna round: R96, puzzle: Exclusion NG 3)", "class 0"]
]}

Turning now to a further sequence:
Identify whether the reported apparent KD of MS2 coat protein of the following sequence is 30 nM or greater: GGUCAGAUGGUAGGAUAUUUAUAUCGAGUGACCCUUUCAUAACAUGAGGAUCACCCAUGUCGGUGGGAGAAGGGCCGUACGGCG [salish99_ExNG02_R04_013] (Eterna round: R96, puzzle: Exclusion NG 2)
class 1
